Data provenance is ChEMBL document CHEMBL5370623.

test-target: Poly [ADP-ribose] polymerase 2 (Homo sapiens, UniProt Q9UGN5)
Sequence (Q9UGN5 whole entry): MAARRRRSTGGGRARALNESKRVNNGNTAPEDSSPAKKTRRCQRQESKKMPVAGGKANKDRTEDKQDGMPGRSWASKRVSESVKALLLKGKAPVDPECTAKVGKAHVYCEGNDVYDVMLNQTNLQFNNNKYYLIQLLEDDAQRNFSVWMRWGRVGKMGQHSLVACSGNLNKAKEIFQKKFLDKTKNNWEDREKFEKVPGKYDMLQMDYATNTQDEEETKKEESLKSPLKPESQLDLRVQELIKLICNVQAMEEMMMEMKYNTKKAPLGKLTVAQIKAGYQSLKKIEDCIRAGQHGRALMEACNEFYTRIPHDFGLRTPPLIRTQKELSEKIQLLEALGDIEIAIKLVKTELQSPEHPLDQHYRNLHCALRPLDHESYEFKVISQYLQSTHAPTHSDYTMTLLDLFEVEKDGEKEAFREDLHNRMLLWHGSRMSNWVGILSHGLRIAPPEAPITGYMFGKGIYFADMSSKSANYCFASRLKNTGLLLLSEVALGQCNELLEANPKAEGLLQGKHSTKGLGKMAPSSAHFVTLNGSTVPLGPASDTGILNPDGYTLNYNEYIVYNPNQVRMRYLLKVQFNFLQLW
method-summary: Inhibition of human recombinant PARP2 expressed in Escherichia coli BL21(DE3) incubated for 1 hr by ELISA assay
Reported pIC50 values for a set of molecules
To interpret pIC50, take it as minus log10 of a concentration measured in moles per litre.

Guide cases for pIC50, answers given:
                                   molecule  data_value
0  CCCN1CCN(C(=O)c2cc(Cn3c(=O)[nH]c(=O)c4ccccc43)ccc2F)CC1=O        8.46
1  O=C(c1cc(Cn2c(=O)[nH]c(=O)c3ccccc32)ccc1F)N1CC(=O)N2CCCC2C1 (stereo not drawn)        8.04

Could you now look at the following molecule, please?
The reported pIC50 value, Poly [ADP-ribose] polymerase 2 (Homo sapiens, UniProt Q9UGN5), for "CC(C)N1CCN(C(=O)c2cc(Cn3c(=O)[nH]c(=O)c4ccccc43)ccc2F)CC1=O" reads 8.76
